molecular target: SFRP-1 (Homo sapiens, UniProt Q8N474); test: Cell-based assay for in vitro measurement of SFRP-1/SARP2 antagonist activity (U2OS cells co-transfected with 16x TCF-tk-Luciferase reporter, Wnt and hSFRP-1); conditions: U2OS, read-out: Fold Induction without SFRP-1, Conc 15 μM; without SFRP-1, single dose
Sequence (Q8N474 32-314): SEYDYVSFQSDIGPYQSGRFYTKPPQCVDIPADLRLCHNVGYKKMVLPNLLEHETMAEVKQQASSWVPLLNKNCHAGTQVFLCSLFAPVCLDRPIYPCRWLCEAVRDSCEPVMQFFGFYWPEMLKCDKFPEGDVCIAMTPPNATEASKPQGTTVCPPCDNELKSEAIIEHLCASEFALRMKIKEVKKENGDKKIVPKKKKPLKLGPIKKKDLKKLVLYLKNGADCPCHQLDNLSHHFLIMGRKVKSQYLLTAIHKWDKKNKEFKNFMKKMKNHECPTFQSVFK
So basically: fold induction at 15 µM at 1 or higher? That is MET. Lower than 1? That is NOT MET.

- molecule: "Cc1ccc(C(=O)N2CCC(NS(=O)(=O)c3cc(S(=O)(=O)c4ccccc4)ccc3C)CC2)cc1 [Example 468]"
  category: "MET"

Check the entry Cc1ccc(S(=O)(=O)c2ccc(C)c(S(=O)(=O)N(C)CCc3ccccc3F)c2)cc1 [Example 275] : does fold induction at 15 µM equal or exceed 1?
NOT MET

Tell me whether fold induction at 15 µM is at least 1 here: Cc1ccc(S(=O)(=O)c2ccccc2)cc1S(=O)(=O)NCCC1CCOCC1 [Example 299]
MET

Hello, I need to know if CCc1ccc(S(=O)(=O)c2ccccc2)cc1S(=O)(=O)NCCc1ccccc1OC [Example 142] has measured fold induction at 15 µM not below 1. Thanks!
MET

API: above_or_equal(metric=fold induction at 15 µM, cutoff=1) for item CCN(CC)CCNS(=O)(=O)c1cc(S(=O)(=O)c2ccccc2)ccc1C [Example 213]
MET

Decide: fold induction at 15 µM of Cc1ccc(S(=O)(=O)c2ccccc2)cc1S(=O)(=O)NC1CCN(C(=O)C2CCCCC2)CC1 [Example 471] >= 1?
MET

###

target: SFRP-1 (Homo sapiens, UniProt Q8N474); experiment: Cell-based assay for in vitro measurement of SFRP-1/SARP2 antagonist activity (U2OS cells co-transfected with 16x TCF-tk-Luciferase reporter, Wnt and hSFRP-1); details: U2OS, read-out: Fold Induction without SFRP-1, Conc 15 μM; without SFRP-1, single dose;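 note: U2OS cells co-transfected with a TCF-tk luciferase reporter, a Wnt vector, hSFRP-1 or empty vector and CMV-βgal, luciferase luminescence read in cell lysates alongside βgal activity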
readoutType: fold induction at 15 µM
Give a plain numeric answer without units written out.

- compound: "Cc1ccc(S(=O)(=O)c2ccccn2)cc1S(=O)(=O)NCCCn1ccnc1"
  fold induction at 15 µM: 1.1
- compound: "COc1ccc(CCNS(=O)(=O)c2cc(S(=O)(=O)c3ccccc3)ccc2OC)cc1OC"
  fold induction at 15 µM: 1.1
- compound: "CCc1ccc(S(=O)(=O)c2ccccc2)cc1S(=O)(=O)NCCc1cccc(OC)c1"
  fold induction at 15 µM: 0.7
- compound: "CC(C)c1ccc(S(=O)(=O)c2ccc(C(C)(C)C)cc2)cc1S(=O)(=O)NCCCn1ccnc1"
  fold induction at 15 µM: 1
- compound: "Cc1ccc(S(=O)(=O)c2ccc(F)cc2)cc1S(=O)(=O)NC1CCOCC1"
  fold induction at 15 µM: 0.9

Look up and report measured fold induction at 15 µM for this entry: C[C@H](CNS(=O)(=O)c1cccc(S(=O)(=O)c2ccccc2)c1)c1ccccc1
1.1

Specify measured fold induction at 15 µM for COc1ccc(S(=O)(=O)c2ccccc2)cc1S(=O)(=O)NCCc1cccc(F)c1 .
1.2

Identify measured fold induction at 15 µM associated with Cc1ccc(S(=O)(=O)c2ccc(Cl)c(Cl)c2)cc1S(=O)(=O)NCCCn1ccnc1
1

Return fold induction at 15 µM (reported value) for this compound: Cc1ccc(S(=O)(=O)c2ccc(Cl)cc2)cc1S(=O)(=O)NCCN1CCOCC1
0.8

Give the reported value of fold induction at 15 µM for this record: O=S(=O)(NCCc1ccccc1)c1cc(S(=O)(=O)c2ccccc2)ccc1Cl
1.2

Dear colleague, please send me the reported fold induction at 15 µM for CNc1ccc(S(=O)(=O)c2ccc(C)c(S(=O)(=O)NCCc3ccccn3)c2)cc1 when you can.
1

Report fold induction at 15 µM for Cc1ccc(S(=O)(=O)c2ccccc2)cc1S(=O)(=O)NCCC(N)=O
1.3

State, in one line, measured fold induction at 15 µM of CCc1ccc(S(=O)(=O)c2ccc(F)cc2)cc1S(=O)(=O)NCC(O)c1ccccc1 (centres unmarked)
1.1

Answer with the recorded fold induction at 15 µM of CC(=O)N1CCC(NS(=O)(=O)c2cc(S(=O)(=O)c3ccccc3)ccc2C)CC1 only.
1.1

Tell me its fold induction at 15 µM given COc1cccc(S(=O)(=O)c2ccc(C(C)C)c(S(=O)(=O)NCCc3ccccn3)c2)c1 as the entry.
1

Answer with reported fold induction at 15 µM of CCN(C)c1ccc(S(=O)(=O)c2ccc(C)c(S(=O)(=O)NCCCn3ccnc3)c2)cc1
1

Please supply the value of reported fold induction at 15 µM for the item Cc1ccc(S(=O)(=O)c2cccc(Cl)c2)cc1S(=O)(=O)NCCCn1ccnc1
1.1
